Values from patent EP0590919A1

Overview of recorded inhibition at 1 µM for various compounds
- tested-target: A₂ receptor (Rattus norvegicus)
- Construct: from tissue; host or cells: rat corpus striatum membrane preparation
- Sequence (P30543 whole entry): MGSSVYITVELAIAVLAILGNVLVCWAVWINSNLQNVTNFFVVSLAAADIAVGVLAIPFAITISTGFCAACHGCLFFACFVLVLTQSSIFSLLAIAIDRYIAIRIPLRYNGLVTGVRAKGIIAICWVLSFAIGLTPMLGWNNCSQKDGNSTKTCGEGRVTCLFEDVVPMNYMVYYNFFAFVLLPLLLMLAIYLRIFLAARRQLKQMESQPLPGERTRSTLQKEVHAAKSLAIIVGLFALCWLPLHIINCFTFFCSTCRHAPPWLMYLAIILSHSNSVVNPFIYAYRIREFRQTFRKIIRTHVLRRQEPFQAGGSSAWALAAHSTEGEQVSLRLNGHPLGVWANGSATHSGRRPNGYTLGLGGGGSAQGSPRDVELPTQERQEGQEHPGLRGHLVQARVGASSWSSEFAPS
- procedure-text: Adenosine A₂ receptor binding test (³H-NECA binding)
- experimental-parameters: 10⁻⁶M; ³H-NECA binding, rat corpus striatum; read-out: Inhibition (%) A₂ Receptor
// units = %; emit number, no label

Request: Consider the compound COc1ccc(/C=C/c2nc3c(c(=O)n(C)c(=O)n3C)n2C)c(OC)c1C and give its recorded inhibition at 1 µM.
Result: 84

* * *

- Test system: Haloperidol-Induced Catalepsy
- procedure-text: Effect on haloperidol-induced catalepsy
- Format: in vivo, mice
- experimental-parameters: rate of decrease in total score based on control group; 10 mg/kg orally
Classification field. Basis: Remission Rate (%). Definitions: Low = under 40%, Mid = from 40% up to 70%, High = 70% and over

Request: Which bin should I file CCn1c(=O)c2c(nc(/C=C/c3ccc(OC)c(F)c3)n2C)n(CC)c1=O [Compound 103] under?
Result: Low

Request: Which of the defined bands does the recorded Remission Rate (%) of CCn1c(=O)c2c(nc(/C=C/c3ccc(OC)cc3OC)n2C)n(CC)c1=O [Compound 6] sit within?
Result: High

Request: Note: place this compound into its band. Item: CCn1c(=O)c2c(nc(/C=C/c3ccc(C)cc3)n2C)n(CC)c1=O [Compound 44]
Result: Low

Request: In plain terms, what class is CCn1c(=O)c2c(nc(/C=C/c3cc(C)c(OC)cc3C)n2C)n(CC)c1=O [Compound 12] ?
Result: Mid

Request: Textbook exercise: identify the category of the compound given here, COc1ccc(/C=C/c2nc3c(c(=O)n(C)c(=O)n3C)n2C)c(Cl)c1OC [Compound 52] , according to its measured value.
Result: Mid

Request: Exercise: read the entry CCn1c(=O)c2c(nc(/C=C/c3ccc4c(c3)OCCO4)n2C)n(CC)c1=O [Compound 18] and state which class it falls under.
Result: High

Request: Pick a category. Item: CCn1c(=O)c2c(nc(/C=C/c3cc(OC)cc(OC)c3)n2C)n(CC)c1=O [Compound 68]
Result: High

Request: Each compound maps to one class by Remission Rate (%). Which class for CCn1c(=O)c2[nH]c(/C=C/c3cc(OC)cc(OC)c3)nc2n(CC)c1=O [Compound 67] ?
Result: Mid
